These entries and their values trace back to patent KR20060104555A.

TARGET DESC: farnesyl transferase (파네실 전달효소) (Rattus norvegicus, UniProt Q02293+Q04631)
Construct: Q 세파로즈 고속 칼럼(Q Sepharose Fast Flow column)을 이용하여 부분 정제한 것을 사용하였다
ASSAY DETAILS: Farnesyl transferase inhibition, SPA with 3H-FPP and biotin-lamin B peptide
TEST CONTEXT: 50% inhibitory concentration; room temperature, 30 min
PROPERTY: IC50 (µM)

# example entries with known answers
COMPOUND	TARGET DESC	UNIT STRING	IC50
COC(/C=C/c1ccccc1)=C1C(=O)C(OC)=C(OC)C1=O [Methyllinderone, methyllinderone]	farnesyl transferase (파네실 전달효소) (Rattus norvegicus, UniProt Q02293+Q04631)	µM	43.3
COC1=CC(=O)C(=C(/C=C/c2ccccc2)OC)C1=O [Methyllucidone, methyllucidone]	farnesyl transferase (파네실 전달효소) (Rattus norvegicus, UniProt Q02293+Q04631)	µM	40.7

(A) COC1=C(OC)C(=O)C(=C(O)/C=C/c2ccccc2)C1=O [Linderone, linderone]
(B) COC1=CC(=O)C(=C(O)/C=C/c2ccccc2)C1=O [Lucidone, lucidone]
Ask: Which of the two gives a bigger number for IC50: A or B ? // respond with label for picked entry
Result: B
